Values from PubChem BioAssay AID504329

# method summary: H1N1 influenza NS1A inhibitors, functional cell based assay (AID 504329)
# run parameters: percent inhibition, at 12.5 µM, active compounds read high
Among all 340,000 compounds or so, about 1,000 (0.29%) were called active. A selection follows. Results with a measured potency or affinity are listed apart.
Quick reference: inhibition of the listed items.
// return numeric value only (unit: %, not printed)

Example entries and their recorded answers appear below.
>  <compound>
CC(=O)c1ccc(N(CC(=O)NCC2CCCO2)C(=O)CCC(=O)Nc2cc(C)on2)cc1 (stereo unspecified)

>  <units of measure>
%

>  <inhibition>
-8.06

$$$$
>  <compound>
COc1ccc(NC2c3ccccc3C(=O)N2c2ccccn2)cc1Cl (stereo unspecified)

>  <units of measure>
%

>  <inhibition>
25

$$$$
>  <compound>
COc1ccc(NS(=O)(=O)c2ccc(C(=O)N3CCN(Cc4ccccc4)CC3)cc2)cc1

>  <units of measure>
%

>  <inhibition>
11.9

$$$$
>  <compound>
CCN(CC(=O)Nc1ccccc1OC)C(=O)CSCc1ccc(C)cc1

>  <units of measure>
%

>  <inhibition>
1.31

$$$$

Q) Which inhibition reading was recorded for the compound `C/C=C(\C)CN1CCN(c2ccccc2)CC1` ?
A) -6.09

Q) // repeat for `CCOc1ccccc1C(=S)NC1CCCCC1` and report
A) -0.78

---

Quick reference: inhibition of the listed items.
# method summary: H1N1 influenza NS1A inhibitors, functional cell based assay (AID 504329)
# run parameters: percent inhibition, at 12.5 µM, active compounds read high
About 1,000 (0.29%) of roughly 340,000 compounds were called active. Only a sample is shown. Measured potencies and affinities stand elsewhere.
// return numeric value only (unit: %, not printed)

Example entries and their recorded answers appear below.
>  <molecule>
COc1ccc(-c2nc(C#N)c(N3CC(C)OC(C)C3)o2)cc1OC (stereo not drawn)

>  <units of measure>
%

>  <assay result>
2.35

$$$$
>  <molecule>
CCN1/C(=C2/SC(=S)N(C)C2=O)C=Cc2cc(C)ccc21

>  <units of measure>
%

>  <assay result>
9.87

$$$$
>  <molecule>
CC(C)C(=O)N1CCC(n2nccc2NC(=O)CCOc2ccccc2)CC1

>  <units of measure>
%

>  <assay result>
0.18

$$$$
>  <molecule>
CC1=NN(c2ccccc2)C(=O)C1N=Nc1cccc(O)c1 (stereo not drawn)

>  <units of measure>
%

>  <assay result>
0.04

$$$$
>  <molecule>
CCOC(=O)CC1=NN(c2ccccc2)C(=O)/C1=C\c1ccc(OC)cc1OC

>  <units of measure>
%

>  <assay result>
17.9

$$$$

Alright, here's another molecule for you.
Q) Which inhibition reading was recorded for the molecule `Cc1ccc(OCC(=O)N/N=C/c2cccnc2)cc1C` ?
A) -11

---

# method summary: H1N1 influenza NS1A inhibitors, functional cell based assay (AID 504329)
# run parameters: percent inhibition, at 12.5 µM, active compounds read high
The whole screen tested about 340,000 compounds, of which about 1,000 (0.29%) were called active. The list is a sample of the results. Measured potencies and affinities stand elsewhere.
measurement label: inhibition (%)
// return numeric value only (unit: %, not printed)

>  <compound>
COc1ccc(NS(=O)(=O)c2ccc3c(c2)[C@H]2C=CC[C@H]2[C@@H](c2ccc(C(=O)O)cc2)N3)cc1

>  <units of measure>
%

>  <inhibition>
24.1

$$$$
>  <compound>
CN1CCN(C2=C(Cl)C(=O)c3ccccc3C2=O)CC1

>  <units of measure>
%

>  <inhibition>
-8.61

$$$$
>  <compound>
O=C(O)c1ccc(NS(=O)(=O)c2ccc3c(c2)C2C=CCC2C(c2ccccc2F)N3)cc1 (stereo not given)

>  <units of measure>
%

>  <inhibition>
18.1

$$$$
>  <compound>
Cc1[nH]n(-c2ccccc2)c(=O)c1N=Nc1ccc2c(c1)OCO2

>  <units of measure>
%

>  <inhibition>
1.81

$$$$
>  <compound>
O=[N+]([O-])c1ccc(N=Nc2ccc(O)cc2O)cc1

>  <units of measure>
%

>  <inhibition>
-9.68

$$$$
>  <compound>
COc1ccccc1C=NNC(=O)c1ccccc1OCCOc1ccccc1

>  <units of measure>
%

>  <inhibition>
-1.44

$$$$
>  <compound>
COC(=O)C1SCCN1S(=O)(=O)c1ccc(Cl)cc1 (stereo not given)

>  <units of measure>
%

>  <inhibition>
-20.7

$$$$
>  <compound>
Cn1c(N)c(C(=O)CSc2nnc3n2CCCCC3)c(=O)n(C)c1=O

>  <units of measure>
%

>  <inhibition>
-13.2

$$$$
>  <compound>
CCc1cccc(OCC(=O)N(C)CC(=O)Nc2cccc(F)c2)c1

>  <units of measure>
%

>  <inhibition>
-9.68

$$$$

Alright, here's another compound for you.
Q) Which inhibition reading was recorded for the compound `CCCCC[C@H]1CN(C2CCCCC2)C(=O)[C@@H]1CC(=O)NCc1ccccc1` ?
A) -4.52

---

# method summary: H1N1 influenza NS1A inhibitors, functional cell based assay (AID 504329)
# run parameters: percent inhibition, at 12.5 µM, active compounds read high
Out of some 340,000 compounds screened, about 1,000 (0.29%) were called active. A selection follows. Measured potencies and affinities stand elsewhere.
Quick reference: inhibition of the listed items.
// return numeric value only (unit: %, not printed)

Example entries and their recorded answers appear below.
>  <compound>
COc1ccc(CNCC2COc3ccccc3O2)cc1 (stereo unspecified)

>  <assay result>
-2.36

$$$$
>  <compound>
O=C(Cc1ccccc1)N/N=C/c1cc(Br)cc(Br)c1O

>  <assay result>
-3.61

$$$$
>  <compound>
CC(=O)c1ccc(S(=O)(=O)NCCCC(=O)N(C)Cc2ccc3c(c2)OCO3)cc1

>  <assay result>
-23.5

$$$$
>  <compound>
NNc1nc(Nc2ccccc2)nc(Nc2ccccc2)n1

>  <assay result>
-2.5

$$$$
>  <compound>
COC(=O)c1cc(C(=O)OCC(=O)NC2CCCCCCC2)cc([N+](=O)[O-])c1

>  <assay result>
-0.07

$$$$

Q) Which inhibition reading was recorded for the compound `O=C(Nc1sc2c(c1C(=O)N1CCOCC1)CCCCC2)c1cccnc1` ?
A) 1.63

Q) // repeat for `CCOC(=O)c1cnc(N2CCN(c3ccccc3)CC2)[nH]c1=O` and report
A) -0.51

---

Quick reference: inhibition of the listed items.
# method summary: H1N1 influenza NS1A inhibitors, functional cell based assay (AID 504329)
# run parameters: percent inhibition, at 12.5 µM, active compounds read high
Screen size: about 340,000 compounds; about 1,000 (0.29%) were called active. The list is a sample of the results. Potency and affinity values are given separately.
// return numeric value only (unit: %, not printed)

Example entries and their recorded answers appear below.
>  <molecule>
COc1ccccc1N/N=C/c1c(CO)cnc(C)c1O

>  <inhibition (%)>
2.27

$$$$
>  <molecule>
O=C(NNC(=S)NC1CCCCC1)c1ccccc1O

>  <inhibition (%)>
5.32

$$$$

Q) Which inhibition reading was recorded for the molecule `Cc1ncc(CO)c(/C=N/NC(=S)Nc2ccc(C(C)C)cc2)c1O` ?
A) 11.8

Q) // repeat for `COc1ccccc1CNc1ncccc1[N+](=O)[O-]` and report
A) -1.95

Q) // repeat for `O=C(C[n+]1ccc(C(=O)N/N=C/c2ccc(O)cc2)cc1)c1ccccc1` and report
A) 2.67

Q) // repeat for `O=C(N/N=C/c1c(O)n(C2CCCCC2)c(=S)[nH]c1=O)c1ccccc1O` and report
A) -5.43

Q) // repeat for `O=C(N/N=C/c1coc2ccccc2c1=O)c1cc(Br)c(O)c(Br)c1` and report
A) -7.78

Q) // repeat for `CCN(CC(=O)NC(=O)NCc1ccccc1)CC(=O)Nc1cc(Cl)ccc1C` and report
A) -8.38

---

# method summary: H1N1 influenza NS1A inhibitors, functional cell based assay (AID 504329)
# run parameters: percent inhibition, at 12.5 µM, active compounds read high
The campaign covered roughly 340,000 compounds. About 1,000 (0.29%) were called active. These entries were drawn from the full list. Potency and affinity values are given separately.
measurement label: inhibition (%)
// return numeric value only (unit: %, not printed)

Q) Which inhibition reading was recorded for the molecule `O=C(CSc1ccc(-c2ccccn2)nn1)c1ccc(F)cc1` ?
A) -9.8

---

Quick reference: inhibition of the listed items.
# method summary: H1N1 influenza NS1A inhibitors, functional cell based assay (AID 504329)
# run parameters: percent inhibition, at 12.5 µM, active compounds read high
Screen size: about 340,000 compounds; about 1,000 (0.29%) were called active. Only a sample is shown. Entries with a potency or affinity are not part of this list.
// return numeric value only (unit: %, not printed)

>  <molecule>
COc1ccc([N+](=O)[O-])cc1/C=N/Nc1nn[nH]n1

>  <inhibition (%)>
-3.63

$$$$
>  <molecule>
COC(=O)N/N=C(\C)c1ccc(C)c([N+](=O)[O-])c1

>  <inhibition (%)>
2.68

$$$$
>  <molecule>
Cc1ccccc1/C=N/Nc1nc2ccccc2[nH]1

>  <inhibition (%)>
-2.18

$$$$
>  <molecule>
O=C(CN1C(=O)NC2(CCCCC2)C1=O)Nc1cc(C(F)(F)F)ccc1N1CCOCC1

>  <inhibition (%)>
-9.76

$$$$
>  <molecule>
CCOc1ccc(OCCC(=O)N(CCCOC)c2c(N)n(Cc3ccccc3)c(=O)[nH]c2=O)cc1

>  <inhibition (%)>
-2.75

$$$$
>  <molecule>
Cc1noc(C)c1C(=O)OCC(=O)Nc1ccc(N2CCOCC2)cc1

>  <inhibition (%)>
5.46

$$$$

Q) Which inhibition reading was recorded for the molecule COc1cc2c(cc1OC)C(c1ccsc1)CC(=O)N2 (configuration not stated) ?
A) 2.33

Q) // repeat for `O=C(COC(=O)c1cccc(-n2cnnn2)c1)c1ccc(F)cc1` and report
A) -2.74

Q) // repeat for CCOc1cccc(C2C(C(=O)c3ccc(C)o3)=C(O)C(=O)N2c2nnc(C)s2)c1 (configuration not stated) and report
A) 3.08

Q) // repeat for `Cc1cc(C(=O)CSc2nnc(N)s2)c(C)n1Cc1cccs1` and report
A) -7.01
